Hello, the source for this data is patent US20200024330A1, in case you need it.

Tgt: HIV-1 JR-CSF Env T388A (HIV-1 (isolate JR-CSF)) (UniProt P20871)
Assay name: cell-based or functional assay
Quantity: Fold IC50 increase relative to wild-type

See these solved cases before continuing.
| Binder | Test value |
| --- | --- |
| PGT-125 (antibody, V domains shown) VH: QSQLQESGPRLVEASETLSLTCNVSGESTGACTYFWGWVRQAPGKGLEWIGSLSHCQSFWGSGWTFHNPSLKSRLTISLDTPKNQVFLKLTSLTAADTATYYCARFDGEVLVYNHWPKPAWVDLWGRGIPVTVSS VL: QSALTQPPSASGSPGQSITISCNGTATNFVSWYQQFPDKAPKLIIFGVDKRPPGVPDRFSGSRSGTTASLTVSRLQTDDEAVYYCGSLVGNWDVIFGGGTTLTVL | 0.6 fold |
| PGT-126 (antibody, V domains shown) VH: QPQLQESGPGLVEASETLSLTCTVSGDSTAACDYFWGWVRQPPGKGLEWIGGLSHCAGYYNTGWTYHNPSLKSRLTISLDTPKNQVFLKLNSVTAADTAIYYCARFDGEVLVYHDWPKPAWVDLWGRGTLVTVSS VL: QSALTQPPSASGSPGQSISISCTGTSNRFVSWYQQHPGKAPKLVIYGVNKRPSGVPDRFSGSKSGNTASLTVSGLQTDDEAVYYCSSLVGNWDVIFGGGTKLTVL | 0.6 fold |
| PGT-128 (antibody, V domains shown) VH: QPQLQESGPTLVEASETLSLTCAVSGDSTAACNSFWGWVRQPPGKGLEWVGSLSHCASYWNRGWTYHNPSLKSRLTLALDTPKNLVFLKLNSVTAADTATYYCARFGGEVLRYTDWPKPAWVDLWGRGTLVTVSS VL: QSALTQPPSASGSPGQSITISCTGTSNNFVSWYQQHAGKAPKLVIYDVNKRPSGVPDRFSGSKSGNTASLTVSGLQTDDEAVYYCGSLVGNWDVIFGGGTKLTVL | 1 fold |
| PGT-130 (antibody, V domains shown) VH: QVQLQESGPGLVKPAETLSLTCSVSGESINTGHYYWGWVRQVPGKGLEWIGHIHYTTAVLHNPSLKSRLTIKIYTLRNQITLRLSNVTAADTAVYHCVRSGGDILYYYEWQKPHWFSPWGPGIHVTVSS VL: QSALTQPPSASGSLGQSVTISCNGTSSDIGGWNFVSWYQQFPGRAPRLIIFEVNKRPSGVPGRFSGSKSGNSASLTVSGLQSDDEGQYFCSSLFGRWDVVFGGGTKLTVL | 1 fold |

Please turn your attention to the following entry.
query: What value of Fold IC50 increase relative to wild-type has been reported for the following binder? PGT-131 (antibody, V domains shown) VH: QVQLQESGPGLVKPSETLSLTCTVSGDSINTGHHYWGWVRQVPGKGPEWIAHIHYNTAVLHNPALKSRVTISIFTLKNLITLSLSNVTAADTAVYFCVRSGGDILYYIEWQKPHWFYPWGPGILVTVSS VL: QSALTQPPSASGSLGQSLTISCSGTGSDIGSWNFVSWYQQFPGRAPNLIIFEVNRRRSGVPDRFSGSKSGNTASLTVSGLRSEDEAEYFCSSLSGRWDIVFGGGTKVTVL
result: 0.6 fold
